methodNotes: G protein-coupled receptor (GPCR) small molecule agonists, calcium flux assay: HEK293 wild type cell line counter screen (AID 1920065); note: % is set by controls: 0 for no effect and ±100 for the full control effect
measurementContext: HEK293 WT calcium flux, fluorescence, agonist mode; series mostly up to 57.6 µM
Active and inactive are the calls of the source. Calls come from the whole dose curve.
measurementName: activation

The cases that follow already have their activation on record.
CCN1/C(=C/C=C/c2sc3ccccc3[n+]2CC)Sc2ccccc21; -0.0412% [at 11.8 µM] (inactive)
OC[C@H]1O[C@@H](OCCc2ccc(O)cc2)[C@H](O)[C@@H](O)[C@@H]1O; inactive
CCc1oc2ccccc2c1C(=O)c1cc(Br)c(O)c(Br)c1; inactive
CC(C)(C)CC(C)(C)c1ccc(OCCO)cc1; inactive

Working through the 2 molecules below one at a time, give activation for each.
1. COC1CCC=CO1 (stereo unspecified)
2. O=C(O)c1cc(Br)c(O)c(Br)c1

Result block:
1: inactive; 2: inactive

###

experimentalTarget: Muscarinic acetylcholine receptor M1 (Homo sapiens) (UniProt P11229)
Sequence (P11229 whole entry, looked up): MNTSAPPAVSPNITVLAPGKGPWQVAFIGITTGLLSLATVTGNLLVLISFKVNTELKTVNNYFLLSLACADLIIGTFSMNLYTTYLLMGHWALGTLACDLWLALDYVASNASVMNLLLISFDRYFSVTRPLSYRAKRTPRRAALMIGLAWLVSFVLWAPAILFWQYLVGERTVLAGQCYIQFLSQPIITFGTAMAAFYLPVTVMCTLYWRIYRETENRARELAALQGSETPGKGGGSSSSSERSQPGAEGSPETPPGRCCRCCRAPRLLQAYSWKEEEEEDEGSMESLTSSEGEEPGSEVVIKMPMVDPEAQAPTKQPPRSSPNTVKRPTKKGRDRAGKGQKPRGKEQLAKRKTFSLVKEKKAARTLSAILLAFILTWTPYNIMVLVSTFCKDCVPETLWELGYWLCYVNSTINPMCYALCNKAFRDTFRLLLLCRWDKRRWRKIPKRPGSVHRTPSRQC
methodNotes: Cholinergic receptor muscarinic 1 (CHRM1) small molecule antagonists, cell-based qHTS assay (AID 1963588); note: nearly all actives have a fitted effect of over 40% in size; note: potency is the fitted concentration of half-maximal effect
measurementContext: CHRM1-CHO antagonist mode, calcium flux fluorescence; series mostly up to 61.5 µM
Inconclusive results are not listed. Calls of active or inactive are those of the source. Calls come from the whole dose curve.
measurementName: Potency

The cases that follow already have their Potency on record.
CCC(=O)C1CC(C(C)C)CC=C1C (stereo unspecified); inactive
Fc1ccc(C(c2ccc(F)cc2)N2CCNCC2)cc1; 2900 nM (active)
O=C(O)c1ccc(O)c(O)c1; inactive
Cc1nn(C)c(Oc2ccccc2)c1/C=N/OCc1ccc(C(=O)OC(C)(C)C)cc1; inactive
CC(O)CC(C)O (stereo unspecified); inactive

Read the next record carefully.
Query block: Report Potency for CN1CC(=O)N2[C@H](c3ccc4c(c3)OCO4)c3[nH]c4ccccc4c3C[C@@H]2C1=O tested on Muscarinic acetylcholine receptor M1 (Homo sapiens) (UniProt P11229).
Result block: inactive

###

experimentalTarget: Muscarinic acetylcholine receptor M1 (Homo sapiens)
methodNotes: Cholinergic receptor muscarinic 1 (CHRM1) small molecule antagonists, cell-based qHTS assay (AID 1963588); note: nearly all actives have a fitted effect of over 40% in size
measurementContext: CHRM1-CHO antagonist mode, calcium flux fluorescence; series mostly up to 61.5 µM
Results filed as inconclusive are left out. Activity calls are given as the source filed them. Calls come from the whole dose curve.
Field 'call' accepts active, inactive

COc1ccc(-c2ccc3cc(C(=O)O)ccc3c2)cc1C12CC3CC(CC(C3)C1)C2; inactive

Query block: Which outcome did this test record for the compound O=C(O)COCCN1CCN(C(c2ccccc2)c2ccc(Cl)cc2)CC1 (stereo unspecified) ?
Result block: inactive

Query block: Which outcome did this test record for the compound CC(COc1ccc(C(C)(C)C)cc1)OS(=O)OCCCl (stereo unspecified) ?
Result block: inactive

Query block: Which outcome did this test record for the compound Oc1ccc2c(c1)Cc1ccccc1-2 ?
Result block: inactive

Query block: Which outcome did this test record for the compound O=C1Nc2ccc([N+](=O)[O-])cc2C1=O ?
Result block: inactive

Query block: Which outcome did this test record for the compound CC(=O)SCC(CC(=O)c1ccc(C)cc1)C(=O)O (stereo unspecified) ?
Result block: inactive

###

methodNotes: Nuclear factor erythroid 2-related factor 2/antioxidant responsive element (Nrf2/ARE) small molecule agonists: luciferase reporter gene qHTS assay in human keratinocytes (AID 1919969); note: nearly all actives have a fitted effect of over 35% in size; note: potency is the fitted concentration of half-maximal effect
measurementContext: KeratinoSens HaCaT ARE-luciferase, luminescence, 24 h; series mostly up to 92.4 µM
Description: National Center for Advancing Translational Sciences [NCATS] Division of Preclinical Innovation [DPI] U.S. Environmental Protection Agency [EPA] National Institutes of Environmental Health Sciences [NIEHS] National Toxicology Program [NTP] […] Oxidative stress has been implicated in the pathogenesis of a variety of diseases ranging from cancer to neurodegeneration. […] The activation of the report gene under culture conditions can be detected by ONE-Glo Luciferase Assay System (Promega, Madison, WI). […]
Records with an inconclusive call do not appear. Activity calls are given as the source filed them. Calls come from the whole dose curve.
measurementName: Potency

The cases that follow already have their Potency on record.
O=C(O)CNC(=O)CNC(=O)CNC(=O)CSC(=O)c1ccccc1; inactive
Cc1ncc([C@@H](CCCCCCc2ccc3c(n2)NCCC3)CC(=O)O)cn1; inactive
C/C=C(\C)C(C)=O; inactive
Cc1ccc(NC=O)c(C)c1; inactive

Working through the 2 molecules below one at a time, give Potency for each.
1. CCCNC(C)(C)COC(=O)c1ccccc1
2. CCN(CC)C(=O)c1ccc(O)c(OC)c1

Result block:
["inactive", "inactive"]

Working through the 8 molecules below one at a time, give Potency for each.
1. Oc1cccc2c(O)cccc12
2. CN1C[C@H]2c3ccccc3Oc3ccc(Cl)cc3[C@@H]2C1
3. CCO[C@@H]1O[C@H](C(COCc2ccccc2)OCc2ccccc2)[C@H](OCc2ccccc2)[C@H]1O (some centres undefined)
4. CCC(=O)C1CC(C(C)C)CC=C1C (centres undefined)
5. Cc1ccc(Br)cc1
6. COc1ccc(C(=O)/C(Br)=C\C(=O)O)cc1
7. CCC(C)c1cc(C(C)(C)C)c(O)c(C(C)(C)C)c1 (centres undefined)
8. COC(=O)CC(C)=O

Result block:
1: 27.3 µM (active); 2: inactive; 3: inactive; 4: inactive; 5: inactive; 6: 54.5 µM (active); 7: 16.9 µM (active); 8: inactive

Working through the 5 molecules below one at a time, give Potency for each.
1. CN[C@H]1CC[C@@H](c2ccc(Cl)c(Cl)c2)c2ccc(S(N)(=O)=O)cc21
2. OC[C@H]1O[C@@H]2O[C@H]3[C@H](O)[C@@H](O)[C@@H](O[C@H]4[C@H](O)[C@@H](O)[C@@H](O[C@H]5[C@H](O)[C@@H](O)[C@@H](O[C@H]6[C@H](O)[C@@H](O)[C@@H](O[C@H]7[C@H](O)[C@@H](O)[C@@H](O[C@H]8[C@H](O)[C@@H](O)[C@@H](O[C@H]9[C@H](O)[C@@H](O)[C@@H](O[C@H]1[C@H](O)[C@H]2O)O[C@@H]9CO)O[C@@H]8CO)O[C@@H]7CO)O[C@@H]6CO)O[C@@H]5CO)O[C@@H]4CO)O[C@@H]3CO
3. CC(C)C[C@H](NC(=O)CNC(=O)[C@H](Cc1ccc(O)cc1)NC(=O)[C@H](CO)NC(=O)[C@H](Cc1c[nH]c2ccccc12)NC(=O)[C@H](Cc1cnc[nH]1)NC(=O)[C@@H]1CCC(=O)N1)C(=O)N[C@@H](CCCN=C(N)N)C(=O)N1CCC[C@H]1C(=O)NCC(N)=O (stereo in doubt)
4. Cc1ccc(Cl)c(Nc2ccccc2C(=O)O)c1Cl
5. C=C(C)C(=O)OCC

Result block:
["inactive", "inactive", "inactive", "inactive", "inactive"]

Data credit: PubChem BioAssay (Tox21)
